Each entry below carries its reported Ratio Ki.
test: Selectivity ratio of Ki for equine serum BChE to Ki for electric eel AChE
endpoint_name: Ratio Ki

>>> result_value("CC(=O)[C@@H]1CC[C@]2(C(=O)O)CC[C@]3(C)[C@H](CC[C@@H]4[C@@]5(C)CC[C@H](O)C(C)(C)[C@@H]5CC[C@]43C)[C@@H]12 [PLATANIC ACID]")
"> 1.6"
>>> result_value("CC(=O)[C@@H]1CC[C@]2(C(=O)OCc3ccccc3)CC[C@]3(C)[C@H](CC[C@@H]4[C@@]5(C)CCC(=O)C(C)(C)[C@@H]5CC[C@]43C)[C@@H]12")
"> 3.8"
>>> result_value("CC(=O)[C@@H]1CC[C@]2(C(=O)NCCN)CC[C@]3(C)[C@H](CC[C@@H]4[C@@]5(C)CC[C@H](O)C(C)(C)[C@@H]5CC[C@]43C)[C@@H]12")
1.2
>>> result_value("CC(=O)[C@@H]1CC[C@]2(C(=O)OCc3ccccc3)CC[C@]3(C)[C@H](CC[C@@H]4[C@@]5(C)CC[C@H](O)C(C)(C)[C@@H]5CC[C@]43C)[C@@H]12")
"> 17"
>>> result_value("COC(=O)[C@]12CC[C@@H]([C@H](C)NC(C)=O)[C@@H]1[C@H]1CC[C@@H]3[C@@]4(C)CC[C@H](OC(C)=O)C(C)(C)[C@@H]4CC[C@@]3(C)[C@]1(C)CC2")
"> 3.4"

* * *

target: Cholinesterase (Equus caballus, UniProt P81908); assay: Uncompetitive inhibition of equine serum BChE using butyrylthiocholine iodide as substrate preincubated for 20 mins followed by substrate addition measured every 1 min for 30 mins by Cornish-Bowden plot method
Sequence (P81908 whole entry): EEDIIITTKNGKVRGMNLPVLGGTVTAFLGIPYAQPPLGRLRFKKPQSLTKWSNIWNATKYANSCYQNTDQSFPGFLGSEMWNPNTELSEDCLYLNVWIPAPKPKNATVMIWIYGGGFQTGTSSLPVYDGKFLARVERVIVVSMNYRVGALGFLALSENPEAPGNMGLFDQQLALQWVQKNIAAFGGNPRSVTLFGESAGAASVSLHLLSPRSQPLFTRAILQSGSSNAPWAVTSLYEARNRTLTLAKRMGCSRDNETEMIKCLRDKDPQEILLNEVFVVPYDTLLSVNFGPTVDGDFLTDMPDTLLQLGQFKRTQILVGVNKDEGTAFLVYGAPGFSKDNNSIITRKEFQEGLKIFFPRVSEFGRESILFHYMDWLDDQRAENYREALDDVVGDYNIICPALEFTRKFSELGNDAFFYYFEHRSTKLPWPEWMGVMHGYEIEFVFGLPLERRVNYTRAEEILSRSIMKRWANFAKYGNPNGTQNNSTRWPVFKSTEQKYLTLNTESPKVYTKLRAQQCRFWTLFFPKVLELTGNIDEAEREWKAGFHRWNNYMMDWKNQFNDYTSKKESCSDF
pKi: −log10 of the molar value.
Each entry below carries its reported pKi.
endpoint_name: pKi

>>> result_value("CC(=O)OC[C@]12CC[C@@H]([C@@H](C)N)[C@@H]1[C@H]1CC[C@@H]3[C@@]4(C)CC[C@H](OC(C)=O)C(C)(C)[C@@H]4CC[C@@]3(C)[C@]1(C)CC2")
6.43
>>> result_value("CC(=O)O[C@H]1CC[C@]2(C)[C@H]3CC[C@@H]4[C@H]5[C@H]([C@@H](C)N)CC[C@]5(C(=O)OCc5ccccc5)CC[C@@]4(C)[C@]3(C)CC[C@H]2C1(C)C")
6.40
>>> result_value("COC(=O)[C@]12CC[C@@H]([C@H](C)N)[C@@H]1[C@H]1CC[C@@H]3[C@@]4(C)CC[C@H](OC(C)=O)C(C)(C)[C@@H]4CC[C@@]3(C)[C@]1(C)CC2")
5.41
>>> result_value("CC(=O)O[C@H]1CC[C@]2(C)[C@H]3CC[C@@H]4[C@H]5[C@H]([C@H](C)N)CC[C@]5(C(=O)OCc5ccccc5)CC[C@@]4(C)[C@]3(C)CC[C@H]2C1(C)C")
5.17
>>> result_value("CC(=O)[C@@H]1CC[C@]2(C(=O)OCc3ccccc3)CC[C@]3(C)[C@H](CC[C@@H]4[C@@]5(C)CC[C@H](N)C(C)(C)[C@@H]5CC[C@]43C)[C@@H]12")
5.46
>>> result_value("CC(=O)[C@@H]1CC[C@]2(C(=O)OCc3ccccc3)CC[C@]3(C)[C@H](CC[C@@H]4[C@@]5(C)CC[C@@H](N)C(C)(C)[C@@H]5CC[C@]43C)[C@@H]12")
5.22
>>> result_value("COC(=O)[C@]12CC[C@@H]([C@@H](C)N)[C@@H]1[C@H]1CC[C@@H]3[C@@]4(C)CC[C@H](OC(C)=O)C(C)(C)[C@@H]4CC[C@@]3(C)[C@]1(C)CC2")
7.30
>>> result_value("CC(=O)O[C@H]1CC[C@]2(C)[C@H]3CC[C@@H]4[C@H]5[C@H](C(C)=O)CC[C@]5(C(=O)NCCN)CC[C@@]4(C)[C@]3(C)CC[C@H]2C1(C)C")
4.77

* * *

experiment: Selectivity ratio of Ki for electric eel AChE to Ki for equine serum BChE
endpoint_name: Ratio Ki

>>> result_value("CC(=O)O[C@H]1CC[C@]2(C)[C@H]3CC[C@@H]4[C@H]5[C@H]([C@H](C)N)CC[C@]5(C(=O)OCc5ccccc5)CC[C@@]4(C)[C@]3(C)CC[C@H]2C1(C)C")
28
>>> result_value("C[C@@H](N)[C@@H]1CC[C@]2(C(=O)OCc3ccccc3)CC[C@]3(C)[C@H](CC[C@@H]4[C@@]5(C)CC[C@H](O)C(C)(C)[C@@H]5CC[C@]43C)[C@@H]12")
157
>>> result_value("C[C@@H](N)[C@@H]1CC[C@]2(CO)CC[C@]3(C)[C@H](CC[C@@H]4[C@@]5(C)CC[C@H](O)C(C)(C)[C@@H]5CC[C@]43C)[C@@H]12")
378
>>> result_value("CC(=O)[C@@H]1CC[C@]2(N)CC[C@]3(C)[C@H](CC[C@@H]4[C@@]5(C)CC[C@H](O)C(C)(C)[C@@H]5CC[C@]43C)[C@@H]12")
3.3
>>> result_value("CC(=O)O[C@H]1CC[C@]2(C)[C@H]3CC[C@@H]4[C@H]5[C@H]([C@@H](C)N)CC[C@]5(C(=O)OCc5ccccc5)CC[C@@]4(C)[C@]3(C)CC[C@H]2C1(C)C")
851
>>> result_value("CC(=O)[C@@H]1CC[C@]2(C(=O)OCc3ccccc3)CC[C@]3(C)[C@H](CC[C@@H]4[C@@]5(C)CC[C@H](N)C(C)(C)[C@@H]5CC[C@]43C)[C@@H]12")
24
>>> result_value("CC(=O)[C@@H]1CC[C@]2(C(=O)OCc3ccccc3)CC[C@]3(C)[C@H](CC[C@@H]4[C@@]5(C)CC[C@@H](N)C(C)(C)[C@@H]5CC[C@]43C)[C@@H]12")
11
>>> result_value("CC(=O)OC[C@]12CC[C@@H]([C@@H](C)N)[C@@H]1[C@H]1CC[C@@H]3[C@@]4(C)CC[C@H](OC(C)=O)C(C)(C)[C@@H]4CC[C@@]3(C)[C@]1(C)CC2")
75
>>> result_value("CC(=O)O[C@H]1CC[C@]2(C)[C@H]3CC[C@@H]4[C@H]5[C@H]([C@@H](C)N)CC[C@]5(C(=O)O)CC[C@@]4(C)[C@]3(C)CC[C@H]2C1(C)C")
209

* * *

target: Cholinesterase (Homo sapiens, UniProt P06276)
Sequence (P06276 whole entry): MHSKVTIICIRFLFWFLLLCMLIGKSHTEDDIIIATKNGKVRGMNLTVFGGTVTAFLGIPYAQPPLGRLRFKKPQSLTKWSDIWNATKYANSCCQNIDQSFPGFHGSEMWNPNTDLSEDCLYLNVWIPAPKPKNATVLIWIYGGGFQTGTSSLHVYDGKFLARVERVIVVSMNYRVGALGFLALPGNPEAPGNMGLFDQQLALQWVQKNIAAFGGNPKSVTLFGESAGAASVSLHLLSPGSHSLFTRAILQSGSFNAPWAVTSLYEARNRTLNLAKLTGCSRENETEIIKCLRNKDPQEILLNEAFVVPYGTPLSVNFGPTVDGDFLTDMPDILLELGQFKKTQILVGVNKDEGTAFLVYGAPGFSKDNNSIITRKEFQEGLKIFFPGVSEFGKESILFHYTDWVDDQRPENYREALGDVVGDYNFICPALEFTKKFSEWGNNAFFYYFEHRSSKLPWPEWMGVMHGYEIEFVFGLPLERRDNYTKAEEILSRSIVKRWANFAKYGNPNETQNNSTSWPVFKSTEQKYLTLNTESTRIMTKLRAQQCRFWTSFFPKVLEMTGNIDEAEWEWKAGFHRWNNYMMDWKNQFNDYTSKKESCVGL
endpoint_name: IC50 (nM)

>>> result_value("CC(C)c1ccc(NC(=O)Oc2ccc3c(c2)[C@]2(C)CCN[C@@H]2N3)cc1")
1

* * *

Each entry below carries its reported Ki.
molecular target: Cholinesterase (Equus caballus, UniProt P81908); test: Uncompetitive inhibition of equine serum BChE using butyrylthiocholine iodide as substrate preincubated for 20 mins followed by substrate addition measured every 1 min for 30 mins by Cornish-Bowden plot method
endpoint_name: Ki (µM)

>>> result_value("C[C@@H](N)[C@@H]1CC[C@]2(C(=O)OCc3ccccc3)CC[C@]3(C)[C@H](CC[C@@H]4[C@@]5(C)CC[C@H](O)C(C)(C)[C@@H]5CC[C@]43C)[C@@H]12")
0.19
>>> result_value("C[C@@H](N)[C@@H]1CC[C@]2(CO)CC[C@]3(C)[C@H](CC[C@@H]4[C@@]5(C)CC[C@H](O)C(C)(C)[C@@H]5CC[C@]43C)[C@@H]12")
1.89
>>> result_value("CC(=O)[C@@H]1CC[C@]2(N)CC[C@]3(C)[C@H](CC[C@@H]4[C@@]5(C)CC[C@H](O)C(C)(C)[C@@H]5CC[C@]43C)[C@@H]12")
38.9
>>> result_value("CC(=O)O[C@H]1CC[C@]2(C)[C@H]3CC[C@@H]4[C@H]5[C@H]([C@@H](C)N)CC[C@]5(C(=O)O)CC[C@@]4(C)[C@]3(C)CC[C@H]2C1(C)C")
2.75

* * *

biological target: Acetylcholinesterase (Electrophorus electricus); experiment: Uncompetitive inhibition of electric eel AChE using acetylthiocholine iodide as substrate preincubated for 20 mins followed by substrate addition measured every 1 min for 30 mins by Cornish-Bowden plot method
Sequence (O42275 whole entry): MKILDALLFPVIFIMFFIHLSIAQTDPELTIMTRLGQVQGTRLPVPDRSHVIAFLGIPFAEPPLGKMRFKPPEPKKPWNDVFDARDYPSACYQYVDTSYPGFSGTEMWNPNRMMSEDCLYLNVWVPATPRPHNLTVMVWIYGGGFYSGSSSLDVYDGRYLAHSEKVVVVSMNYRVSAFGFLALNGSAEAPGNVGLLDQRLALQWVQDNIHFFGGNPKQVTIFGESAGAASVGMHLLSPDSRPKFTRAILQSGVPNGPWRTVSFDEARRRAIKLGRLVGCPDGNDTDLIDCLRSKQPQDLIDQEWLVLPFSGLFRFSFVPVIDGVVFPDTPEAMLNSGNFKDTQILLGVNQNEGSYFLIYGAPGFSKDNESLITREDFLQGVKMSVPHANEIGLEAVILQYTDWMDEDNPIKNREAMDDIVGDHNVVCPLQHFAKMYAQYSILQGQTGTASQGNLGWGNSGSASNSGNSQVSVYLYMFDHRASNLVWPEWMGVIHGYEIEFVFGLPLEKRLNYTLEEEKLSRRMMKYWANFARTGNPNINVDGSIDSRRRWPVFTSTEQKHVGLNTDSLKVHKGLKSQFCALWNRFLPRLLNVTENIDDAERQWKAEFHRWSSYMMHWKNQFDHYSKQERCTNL
endpoint_name: Ki

>>> result_value("CC(=O)[C@@H]1CC[C@]2(C(=O)O)CC[C@]3(C)[C@H](CC[C@@H]4[C@@]5(C)CC[C@H](O)C(C)(C)[C@@H]5CC[C@]43C)[C@@H]12")
"36.9 µM"
>>> result_value("C[C@@H](N)[C@@H]1CC[C@]2(C(=O)OCc3ccccc3)CC[C@]3(C)[C@H](CC[C@@H]4[C@@]5(C)CC[C@H](O)C(C)(C)[C@@H]5CC[C@]43C)[C@@H]12")
"47.8 µM"
>>> result_value("CC(=O)[C@@H]1CC[C@]2(C(=O)OCc3ccccc3)CC[C@]3(C)[C@H](CC[C@@H]4[C@@]5(C)CC[C@@H](N)C(C)(C)[C@@H]5CC[C@]43C)[C@@H]12")
"> 90 µM"
>>> result_value("CC(=O)O[C@H]1CC[C@]2(C)[C@H]3CC[C@@H]4[C@H]5[C@H]([C@H](C)N)CC[C@]5(C(=O)OCc5ccccc5)CC[C@@]4(C)[C@]3(C)CC[C@H]2C1(C)C")
"34.2 µM"
>>> result_value("C[C@@H](N)[C@@H]1CC[C@]2(CO)CC[C@]3(C)[C@H](CC[C@@H]4[C@@]5(C)CC[C@H](O)C(C)(C)[C@@H]5CC[C@]43C)[C@@H]12")
"104 µM"
>>> result_value("CC(=O)O[C@H]1CC[C@]2(C)[C@H]3CC[C@@H]4[C@H]5[C@H](C(C)=O)CC[C@]5(C(N)=O)CC[C@@]4(C)[C@]3(C)CC[C@H]2C1(C)C")
"10.9 µM"
>>> result_value("COC(=O)[C@]12CC[C@@H]([C@H](C)NC(C)=O)[C@@H]1[C@H]1CC[C@@H]3[C@@]4(C)CC[C@H](OC(C)=O)C(C)(C)[C@@H]4CC[C@@]3(C)[C@]1(C)CC2")
"45.6 µM"
>>> result_value("CC(=O)O[C@H]1CC[C@]2(C)[C@H]3CC[C@@H]4[C@H]5[C@H]([C@@H](C)N)CC[C@]5(C(=O)OCc5ccccc5)CC[C@@]4(C)[C@]3(C)CC[C@H]2C1(C)C")
"17 µM"
>>> result_value("COC(=O)[C@]12CC[C@@H]([C@H](C)N)[C@@H]1[C@H]1CC[C@@H]3[C@@]4(C)CC[C@H](OC(C)=O)C(C)(C)[C@@H]4CC[C@@]3(C)[C@]1(C)CC2")
"> 80 µM"
>>> result_value("CC(=O)[C@@H]1CC[C@]2(N)CC[C@]3(C)[C@H](CC[C@@H]4[C@@]5(C)CC[C@H](O)C(C)(C)[C@@H]5CC[C@]43C)[C@@H]12")
"> 120 µM"
>>> result_value("CC(=O)[C@@H]1CC[C@]2(C(=O)OCc3ccccc3)CC[C@]3(C)[C@H](CC[C@@H]4[C@@]5(C)CC[C@H](O)C(C)(C)[C@@H]5CC[C@]43C)[C@@H]12")
"4.06 µM"
